# ASSAY OVERVIEW: Pharmacokinetic test in C57BL/6 mice
# Format: in vivo
# TEST PARAMETERS: mouse; male C57BL/6 mice, plasma; IV 1 mg/kg, PO 10 mg/kg (route not given for Cmax); read-out: Peak concentration Cmax
MEASURE NAME: Cmax (nM)

COc1nc(-c2cccc(-c3cccc(NC(=O)c4cc(C)c5c(n4)CN(CCO)C5)c3Cl)c2Cl)cnc1CN1CC(O)C1	221

1: COc1cc(C(=O)Nc2cccc(-c3cccc(-c4cnc(CN5CC(C)(O)C5)c(OC)n4)c3Cl)c2Cl)nc2c1CCN(CCO)C2
2: COc1nc(-c2cccc(-c3cccc(NC(=O)c4cc(C)c5c(n4)CN(CCO)CC5)c3Cl)c2Cl)cnc1CN1CC(O)C1
Just curious, which one has the larger Cmax reading, 1 or 2 ? Lab log: write the label of the selected item as the result.
1
(1: 260 nM, 2: 117 nM)

###

# TESTED TARGET: PD-L1 in MDA-MR-231 cells (Homo sapiens)
# Construct: endogenous in cells
# ASSAY OVERVIEW: Effect on expression level of PD-L1 in MDA-MR-231 cells (FACS)
# TEST PARAMETERS: 24 hours incubation, FACS detection of cell surface PD-L1
MEASURE NAME: IC50 (nM)

// known answers, use as guide
COc1nc(-c2cccc(-c3cccc(NC(=O)c4cc(C)c5c(n4)CN(CCO)CC5)c3Cl)c2Cl)cnc1CN[C@H]1C[C@](C)(O)C1	21.9
COc1nc(-c2cccc(-c3cccc(NC(=O)c4cc(C)c5c(n4)CN(CCO)CC5)c3Cl)c2Cl)cnc1CN1CC(C)(O)C1	9.97
COc1nc(-c2cccc(-c3cccc(NC(=O)c4cc(OC(F)F)c5c(n4)CN(CCO)CC5)c3Cl)c2Cl)cnc1CN1CC(O)C1	8.93
Cc1cc(C(=O)Nc2cccc(-c3cccc(NC(=O)c4ccc(CNCCO)cn4)c3C)c2Cl)nc2c1CCN(CCO)C2	41.1
COc1cc(C(=O)Nc2cccc(-c3cccc(-c4cnc(CN5CC(C)(O)C5)c(OC)n4)c3Cl)c2Cl)nc2c1CCN(CCO)C2	9.48

A: COc1cc(C(=O)Nc2cccc(-c3cccc(-c4cnc(CN5CC(O)C5)c(OC)n4)c3Cl)c2Cl)nc2c1CCN(CCO)C2
B: COc1nc(-c2cccc(-c3cccc(NC(=O)c4cc(C)c5c(n4)CN(CC(O)CO)CC5)c3Cl)c2Cl)cnc1CN1CC(O)C1 (stereo not shown)
C: Cc1cc(C(=O)Nc2cccc(-c3cccc(NC(=O)c4ccc(CNCCO)cn4)c3Cl)c2C)nc2c1CCN(CCO)C2
Highest IC50 first, then in falling order down to the smallest. // rank by listing labels in the order requested
C, B, A
(C: 93.2 nM, B: 10.5 nM, A: 5.27 nM)

A: COc1nc(-c2cccc(-c3cccc(NC(=O)c4cc(C)c5c(n4)CN(CCO)CC5)c3Cl)c2Cl)cnc1CN1CCC(CO)C1 (stereo not shown)
B: Cc1cc(C(=O)Nc2cccc(-c3cccc(NC(=O)c4ccc(CNCCO)cn4)c3C)c2C)nc2c1CCN(CCO)C2
Compare IC50: is it lower for A or for B ? Please identify the chosen entry by its label.
A
(A: 6.99 nM, B: 62.5 nM)

1: COc1nc(-c2cccc(-c3cccc(NC(=O)c4cc(C)c5c(n4)CN(CCO)CC5)c3Cl)c2Cl)cnc1CN1CC2(CC(O)C2)C1
2: COc1nc(-c2cccc(-c3cccc(NC(=O)c4cc(C)c5c(n4)CN(CCO)CC5)c3Cl)c2Cl)cnc1CNCC1CCC(=O)N1 (stereo not shown)
Which record would sort first by descending IC50, 1 or 2 ? Please indicate the selected item by its label.
2
(2: 8.86 nM, 1: 5.52 nM)

###

# TESTED TARGET: PD-L1 in MDA-MR-231 cells (Homo sapiens)
# Construct: endogenous in cells; host or cells: MDA-MB-231
# ASSAY OVERVIEW: Effect on expression level of PD-L1 in MDA-MR-231 cells (FACS)
# Type: cell-based
# TEST PARAMETERS: 24 hours incubation, FACS detection of cell surface PD-L1
MEASURE NAME: IC50 (nM)

A: COc1nc(-c2cccc(-c3cccc(NC(=O)c4cc(C)c5c(n4)CN(CCO)CC5)c3Cl)c2Cl)cnc1CN1CC(CO)C1 [Compound 35]
B: COc1nc(-c2cccc(-c3cccc(NC(=O)c4cc(C)c5c(n4)CN(CCO)CC5)c3C#N)c2Cl)cnc1CN1CC(O)C1 [Compound 47]
C: Cc1c(NC(=O)c2ccc(CNCCO)cn2)cccc1-c1cccc(NC(=O)c2cc(NCCO)c3c(n2)CN(CCO)CC3)c1Cl [Compound 18]
Sort the compounds on IC50; start with the lowest figure. A ranking is expressed here by listing the labels in the requested order.
A, B, C

###

# TESTED TARGET: PD-L1 in MDA-MR-231 cells (Homo sapiens)
# Construct: endogenous in cells
# ASSAY OVERVIEW: Effect on expression level of PD-L1 in MDA-MR-231 cells (FACS)
# TEST PARAMETERS: 24 hours incubation, FACS detection of cell surface PD-L1
MEASURE NAME: IC50 (nM)

Solved cases (2 shown):
Cc1cc(C(=O)Nc2cccc(-c3cccc(Nc4nc(C(F)F)nc5cc(CN6CC[C@@H](O)C6)cnc45)c3C)c2Cl)nc2c1CCN(CC(=O)O)C2 [Compound 23]	0.22
COc1nc(-c2cccc(-c3cccc(NC(=O)c4cc(C#N)c5c(n4)CN(CCO)CC5)c3Cl)c2Cl)cnc1CN1CC(O)C1 [Compound 45]	7.81

1: COc1nc(-c2cccc(-c3cccc(NC(=O)c4cc(OCc5cncc(C#N)c5)c5c(n4)CN(CCO)CC5)c3Cl)c2Cl)cnc1CN1CC(O)C1 [Compound 51]
2: Cc1cc(C(=O)Nc2cccc(-c3cccc(NC(=O)c4ccc(CNCCO)cn4)c3C)c2Cl)nc2c1CCN(C1CCNCC1)C2 [Compound 14]
Input pair: 1 , 2 . Output: entry with lower IC50. Please indicate the selected item by its label.
1
(1: 25.8 nM, 2: 96.9 nM)

I: Cc1cc(C(=O)Nc2cccc(-c3cccc(NC(=O)c4ccc(CNCCO)cn4)c3C)c2Cl)nc2c1CCN(C(CO)CO)C2 [Compound 11]
II: COc1nc(-c2cccc(-c3cccc(NC(=O)c4cc(C)c5c(n4)CN(CCO)CC5)c3Cl)c2Cl)cnc1CN1CC(O)C1 [Compound 21]
Please state the entry with greater IC50 among I and II . Write down the label attached to your selection.
I

P: COc1nc(-c2cccc(-c3cccc(NC(=O)c4cc(C)c5c(n4)CN(CCO)CC5)c3Cl)c2Cl)ccc1CN1CC(O)C1 [Compound 37]
Q: COc1nc(-c2cccc(-c3cccc(NC(=O)c4nc(C)c5c(n4)CN(CCO)CC5)c3Cl)c2Cl)cnc1CN1CC(O)C1 [Compound 36]
Short answer wanted: higher IC50, P or Q ? Use the label to indicate which entry you chose.
Q
(Q: 95.8 nM, P: 28.1 nM)

A: COc1nc(-c2cccc(-c3cccc(NC(=O)c4cc(C(F)(F)F)c5c(n4)CN(CCO)CC5)c3Cl)c2Cl)cnc1CN1CC(O)C1 [Compound 46]
B: COc1nc(-c2cccc(-c3cccc(NC(=O)c4cc(C)c5c(n4)CN(CCO)CC5)c3Cl)c2Cl)cnc1CN1CCC2(CNC(=O)C2)C1 (stereo not shown) [Compound 32]
Identify the entry with the larger IC50. Options: A and B Output the label that corresponds to your choice.
A
(A: 22.6 nM, B: 5.53 nM)

I: COc1nc(-c2cccc(-c3cccc(NC(=O)c4cc(C)c5c(n4)CN(CCO)CC5)c3Cl)c2Cl)cnc1CNCCO [Compound 31]
II: COc1nc(-c2cccc(-c3cccc(NC(=O)c4cc(C)c5c(n4)CN(CCO)CC5)c3Cl)c2Cl)cnc1CN1CCCC1CO (stereo not shown) [Compound 40]
Field: entry with larger IC50 (options I / II ). Identify your selection by its label.
II

###

# TESTED TARGET: PD1/PD-L1 (Homo sapiens, UniProt Q9NZQ7)
# Sequence (Q9NZQ7 19-290): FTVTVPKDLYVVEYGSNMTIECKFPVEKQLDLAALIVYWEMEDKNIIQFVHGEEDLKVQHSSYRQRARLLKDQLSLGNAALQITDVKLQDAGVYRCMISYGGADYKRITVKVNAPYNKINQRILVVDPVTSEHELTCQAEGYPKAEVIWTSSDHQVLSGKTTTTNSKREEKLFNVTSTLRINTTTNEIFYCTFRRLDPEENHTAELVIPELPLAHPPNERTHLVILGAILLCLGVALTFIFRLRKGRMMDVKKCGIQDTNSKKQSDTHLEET
# ASSAY OVERVIEW: NFAT activity test (TCR Activitor/PD-L1 CHO cells with PD-1/NFAT Reporter-Jurkat cells)
# Assay type: cell-based
# Set-up: host or cells: TCR Activitor/PD-L1 CHO cells; PD-1/NFAT Reporter-Jurkat cells
# TEST PARAMETERS: TCR Activitor/PD-L1 CHO cells + PD-1/NFAT Reporter-Jurkat cells, 5 hours, luciferase
MEASURE NAME: Maximum effect (induction fold)

COc1nc(-c2cccc(-c3cccc(NC(=O)c4cc(C#N)c5c(n4)CN(CCO)CC5)c3Cl)c2Cl)cnc1CN1CC2(CC(O)C2)C1 [Compound 57]	4.42
COc1nc(-c2cccc(-c3cccc(NC(=O)c4cc(C#N)c5c(n4)CN(CCO)CC5)c3Cl)c2Cl)cnc1CN1CC(CO)C1 [Compound 60]	4.95
Cc1cc(C(=O)Nc2cccc(-c3cccc(NC(=O)c4ccc(CNCCO)cn4)c3C)c2Cl)nc2c1CCN(C1CCC(O)CC1)C2 (stereo not shown) [Compound 15]	3.80
Cc1cc(C(=O)Nc2cccc(-c3cccc(NC(=O)c4ccc(CNCCO)cn4)c3C)c2Cl)nc2c1CCN(CC(=O)O)C2 [Compound 17]	4.23
